Molecular target: Substance-K receptor (Homo sapiens, UniProt P21452)
Sequence (P21452 whole entry): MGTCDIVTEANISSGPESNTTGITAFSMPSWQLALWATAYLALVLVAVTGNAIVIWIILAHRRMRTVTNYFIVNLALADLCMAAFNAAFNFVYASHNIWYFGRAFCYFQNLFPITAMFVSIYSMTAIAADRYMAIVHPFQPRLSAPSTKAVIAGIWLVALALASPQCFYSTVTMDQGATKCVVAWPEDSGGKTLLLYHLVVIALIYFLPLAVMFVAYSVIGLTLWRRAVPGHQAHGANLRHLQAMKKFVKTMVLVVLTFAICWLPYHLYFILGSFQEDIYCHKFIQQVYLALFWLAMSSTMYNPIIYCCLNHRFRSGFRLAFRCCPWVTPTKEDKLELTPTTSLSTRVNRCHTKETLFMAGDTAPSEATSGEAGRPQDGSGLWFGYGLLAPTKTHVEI
Type: cell membranes, CHO, Membrane
Settings: read-out: Ki
MEASURED ENDPOINT: pKi
On this scale, pKi is minus log10 of a concentration expressed in M (mol/L).

Reference set (2 entries):
{"MOLECULE": "Clc1ccc(COC(Cn2ccnc2)c2ccc(Cl)cc2Cl)c(Cl)c1 (stereo not drawn) [MICONAZOLE]", "pKi": 5.79}
{"MOLECULE": "CCCCCCCCNC(C)C(O)c1ccc(SC(C)C)cc1 (stereo not drawn) [SULOCTIDIL]", "pKi": 5.65}

Moving on to another molecule below.
**Query** GET /values?readout=pKi&item= Cc1c(O)cccc1C(=O)N[C@@H](CSc1ccccc1)[C@H](O)CN1C[C@H]2CCCC[C@H]2C[C@H]1C(=O)NC(C)(C)C
**Result** 5.01

Value source: ChEMBL document CHEMBL1909046
